compounds and their reported inhibition at 20 µg/mL (stock)
system: HUVEC (normal human umbilical vein endothelial cells); assay: VEGF-induced HUVEC proliferation: cell proliferation inhibitory action test; type: cell-based; details: 72 h, 5 μL of 20 μg/mL test compound solution per well, WST-8 absorbance at 450 nm three days after VEGF addition, read-out: Cell proliferation inhibition rate (%);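 note: each well holds 100 µL cell suspension before compound addition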
Counter-ions that a name gives are not always drawn.
Your answer should be a number followed by the unit of measure.

CC(C)(C)c1ccc(NC(=O)c2cccnc2SCc2ccnc(N)c2)cc1 [Compound 3-4, monohydrochloride] :: 100%
CNc1cc(CSc2ncccc2C(=O)Nc2cc(C)cc(C)c2)ccn1 [Compound 3-6, monohydrochloride] :: 100%
Nc1cc(CSc2ncccc2C(=O)Nc2ccc(Cl)cc2)ccn1 [Compound 3-9, monohydrochloride] :: 100%

Data request: Return the recorded inhibition at 20 µg/mL (stock) value; entry: Cc1cc(C)cc(NC(=O)c2cccnc2SCc2ccnc(N(C)CCN(C)C)c2)c1 [Compound 1-3]
Data returned: 99%

Data request: Return the recorded inhibition at 20 µg/mL (stock) value; entry: Cc1cc(C)cc(NC(=O)c2cccnc2SCc2ccnc(Nc3ncc(C#N)s3)c2)c1 [Compound 2-24]
Data returned: 88%

Data request: Return the recorded inhibition at 20 µg/mL (stock) value; entry: Cc1cc(C)cc(NC(=O)c2cccnc2SCc2ccnc(NC3CC3)c2)c1 [Compound 1-2]
Data returned: 100%

Data request: Return the recorded inhibition at 20 µg/mL (stock) value; entry: CC(C)c1cccc(NC(=O)c2cccnc2SCc2ccnc(N)c2)c1 [Compound 3-2, monohydrochloride]
Data returned: 97%

Data request: Return the recorded inhibition at 20 µg/mL (stock) value; entry: CNC(=O)Nc1cc(CSc2ncccc2C(=O)Nc2ccc(OC(F)(F)F)cc2)ccn1 [Compound 9-2]
Data returned: 100%

###

compounds and their reported inhibition at 20 µg/mL (stock)
system: HUVEC (normal human umbilical vein endothelial cells); experiment: VEGF-induced HUVEC proliferation: cell proliferation inhibitory action test; type: cell-based; conditions: 72 h, 5 μL of 20 μg/mL test compound solution per well, WST-8 absorbance at 450 nm three days after VEGF addition, read-out: Cell proliferation inhibition rate (%);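 note: each well holds 100 µL cell suspension before compound addition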
Report the value in % with no unit label.

Cc1cc(C)cc(NC(=O)c2cccnc2SCc2ccnc(NC=O)c2)c1 :: 100

Data request: Return the recorded inhibition at 20 µg/mL (stock) value; entry: Cc1cc(C)cc(NC(=O)c2cccnc2SCc2ccnc(NC(=O)C(C)(C)C)c2)c1
Data returned: 100

Data request: Return the recorded inhibition at 20 µg/mL (stock) value; entry: Cc1cc(C)cc(NC(=O)c2cccnc2SCc2ccnc(NC(=O)NC(C)(C)C)c2)c1
Data returned: 100

Data request: Return the recorded inhibition at 20 µg/mL (stock) value; entry: CC(=O)Nc1cc(CSc2ccsc2C(=O)Nc2cc(C)cc(C)c2)ccn1
Data returned: 99

Data request: Return the recorded inhibition at 20 µg/mL (stock) value; entry: CC(=O)Nc1cc(CSc2ccccc2C(=O)Nc2ccc(C(C)(C)C)cc2)ccn1
Data returned: 85

Data request: Return the recorded inhibition at 20 µg/mL (stock) value; entry: CN(C)CCN(C)CC(=O)NC(Sc1ncccc1C(=O)Nc1ccc(OC(F)F)cc1)c1ccncc1 (stereo not drawn)
Data returned: 100

Data request: Return the recorded inhibition at 20 µg/mL (stock) value; entry: Cc1cc(C)cc(NC(=O)c2cccnc2SCc2ccnc(NC(=O)C(C)C)c2)c1
Data returned: 100

Data request: Return the recorded inhibition at 20 µg/mL (stock) value; entry: Cc1cc(C)cc(NC(=O)c2sccc2SCc2ccnc(N)c2)c1
Data returned: 100

###

tested on: B16 cells; experiment: Tumor growth inhibitory action test using cancer models in mice (B16 cells); format: in vivo; conditions: C57BL/6N mouse, B16 cells intradermal; 100 mg/kg/day oral once a day, day 0 to day 10; average of 9 mice per group; read-out: Tumor tissue weight inhibition rate (%)
Where a name gives a salt, the structure may show the parent alone.
READOUT_KIND: inhibition in vivo at 100 mg/kg/day (%)
Report the value in % with no unit label.

Solved cases below.
CC(=O)N1CCN(c2cc(CSc3ncccc3C(=O)Nc3cc(C)cc(C)c3)ccn2)CC1 :: 42
CC(=O)Nc1cc(CSc2ncccc2C(=O)Nc2ccc(OC(F)(F)F)cc2)ccn1 :: 86
CNc1cc(CSc2ncccc2C(=O)Nc2ccc(OC(F)(F)F)cc2)ccn1 [Compound 3-8, monohydrochloride] :: 80
CC(=O)Nc1cc(CSc2ncccc2C(=O)Nc2cccc(Cl)c2)ccn1 :: 74
CC(C)c1cccc(NC(=O)c2cccnc2SCc2ccnc(N)c2)c1 [Compound 3-2, monohydrochloride] :: 61
CCC(=O)Nc1cc(CSc2ncccc2C(=O)Nc2cc(C)cc(C)c2)ccn1 :: 51
CC(=O)Nc1cc(CSc2ncccc2C(=O)Nc2cc(C)cc(C)c2)ccn1 :: 75

Continue with the compound presented below.
Data request: GET inhibition in vivo at 100 mg/kg/day where system = B16 cells and item = CC(=O)Nc1cc(CSc2ccccc2C(=O)Nc2cc(C)cc(C)c2)ccn1
Data returned: 47

###

Test system: HUVEC (normal human umbilical vein endothelial cells)
Test: VEGF-induced HUVEC proliferation: cell proliferation inhibitory action test;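 note: each well holds 100 µL cell suspension before compound addition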
Format: cell-based
Conditions: 72 h, 5 μL of 20 μg/mL test compound solution per well, WST-8 absorbance at 450 nm three days after VEGF addition, read-out: Cell proliferation inhibition rate (%)
Description: A cell proliferation inhibitory action test of the compounds of the present invention was performed using a VEGF-induced HUVEC proliferation evaluation system (HUVEC stands for normal human umbilical vein endothelial cells), which is one of the widely-used methods of evaluating in vitro angiogenesis inhibitory effects of drugs. […]
Counter-ions that a name gives are not always drawn.
molecules and their reported inhibition at 20 µg/mL (stock)
Report the value in % with no unit label.

Solved cases below.
Cc1cc(C)cc(NC(=O)c2cccnc2SCc2ccnc(N)c2)c1 [Compound 3-1, monohydrochloride] :: 100
Nc1cc(CSc2ncccc2C(=O)Nc2ccc3c(c2)CCC3)ccn1 [Compound 3-3, monohydrochloride] :: 100

Data request: GET inhibition at 20 µg/mL (stock) where system = HUVEC (normal human umbilical vein endothelial cells) and item = CC(C)(C)OC(=O)Nc1cc(CSc2ncccc2C(=O)Nc2ccc3cn[nH]c3c2)ccn1 [Compound 2-6]
Data returned: 100

Data request: GET inhibition at 20 µg/mL (stock) where system = HUVEC (normal human umbilical vein endothelial cells) and item = CC(=O)N(C)c1cc(CSc2ncccc2C(=O)Nc2cc(C)cc(C)c2)ccn1 [Compound 4-12]
Data returned: 100

Data request: GET inhibition at 20 µg/mL (stock) where system = HUVEC (normal human umbilical vein endothelial cells) and item = CC(=O)N1CCN(c2cc(CSc3ncccc3C(=O)Nc3ccc4c(c3)CCC4)ccn2)CC1 [Compound 1-11]
Data returned: 96

Data request: GET inhibition at 20 µg/mL (stock) where system = HUVEC (normal human umbilical vein endothelial cells) and item = CC(C)c1cccc(NC(=O)c2cccnc2SCc2ccnc(NC(=O)OC(C)(C)C)c2)c1 [Compound 2-2]
Data returned: 100

Data request: GET inhibition at 20 µg/mL (stock) where system = HUVEC (normal human umbilical vein endothelial cells) and item = CC(C)(C)OC(=O)Nc1cc(CSc2ncccc2C(=O)Nc2ccc3c(c2)CCC3)ccn1 [Compound 2-3]
Data returned: 100

Data request: GET inhibition at 20 µg/mL (stock) where system = HUVEC (normal human umbilical vein endothelial cells) and item = Cc1cc(C)cc(NC(=O)c2cccnc2SCc2ccnc(N(C)C(=O)OC(C)(C)C)c2)c1 [Compound 2-7]
Data returned: 52

###

tested on: HUVEC (normal human umbilical vein endothelial cells); experiment: VEGF-induced HUVEC proliferation: cell proliferation inhibitory action test; type: cell-based; conditions: 72 h, 5 μL of 20 μg/mL test compound solution per well, WST-8 absorbance at 450 nm three days after VEGF addition, read-out: Cell proliferation inhibition rate (%);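 note: each well holds 100 µL cell suspension before compound addition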
READOUT_KIND: inhibition at 20 µg/mL (stock) (%)
Report the value in % with no unit label.

CCC(=O)Nc1cc(CSc2ncccc2C(=O)Nc2cc(C)cc(C)c2)ccn1 :: 100

Data request: Return the recorded inhibition at 20 µg/mL (stock) value; entry: Cc1cc(C)cc(NC(=O)c2cccnc2SCc2ccnc(N3CCN(C)CC3)c2)c1
Data returned: 97

Data request: Return the recorded inhibition at 20 µg/mL (stock) value; entry: Cc1cc(C)cc(NC(=O)c2cccnc2SCc2ccnc(NS(=O)(=O)C(F)(F)F)c2)c1
Data returned: 100

###

test system: HUVEC (normal human umbilical vein endothelial cells); assay: VEGF-induced HUVEC proliferation: cell proliferation inhibitory action test; assay type: cell-based; conditions: 72 h, 5 μL of 20 μg/mL test compound solution per well, WST-8 absorbance at 450 nm three days after VEGF addition, read-out: Cell proliferation inhibition rate (%);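 note: each well holds 100 µL cell suspension before compound addition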
Where a name gives a salt, the structure may show the parent alone.
READOUT_KIND: inhibition at 20 µg/mL (stock) (%)
Report the value in % with no unit label.

Cc1cc(C)cc(NC(=O)c2cccnc2SCc2ccnc(Nc3ccccc3)c2)c1 :: 100
CCCCCNc1cc(CSc2ncccc2C(=O)Nc2cc(C)cc(C)c2)ccn1 :: 100
CNc1cc(CSc2ncccc2C(=O)Nc2ccc3c(c2)CCC3)ccn1 [Compound 3-7, monohydrochloride] :: 96
CCCNC(=O)Nc1cc(CSc2ncccc2C(=O)Nc2cc(C)cc(C)c2)ccn1 :: 100
Nc1cc(CSc2ncccc2C(=O)Nc2cc3ccccc3cn2)ccn1 :: 100
NCC(=O)Nc1cc(CSc2ncccc2C(=O)Nc2ccc(OC(F)F)cc2)ccn1 :: 88

Continue with the compound presented below.
Data request: Return the recorded inhibition at 20 µg/mL (stock) value; entry: Cc1cc(C)cc(NC(=O)c2cccnc2SCc2ccnc(N3CCCCC3)c2)c1
Data returned: 90
